Study system: HLA-A*23:01
Assay overview: IEDB peptide-MHC binding, purified MHC/competitive/fluorescence; filed as Kd, often an IC50 or EC50 that approximates it; bounds were set here for any values at or beyond the usual limits of such assays
Run conditions: source organism: Bacillus anthracis str. A0488
pKd: −log10 of the molar value.
Parameter: pKd

Construct sequence	Study system	Parameter	Data value
KQGDVFYTA	HLA-A*23:01	pKd	≤ 4.70

###

Study system: HLA-B*44:03
Assay overview: IEDB peptide-MHC binding, purified MHC/competitive/radioactivity; filed as Kd, often an IC50 or EC50 that approximates it; bounds were set here for any values at or beyond the usual limits of such assays
Run conditions: source organism: Lassa virus Josiah
pKd: −log10 of the molar value.

Construct sequence	pKd
SEGKDTPGGY	5.76

###

Study system: HLA-A*03:01
Assay overview: IEDB peptide-MHC binding, purified MHC/direct/fluorescence; filed as Kd, often an IC50 or EC50 that approximates it; bounds were set here for any values at or beyond the usual limits of such assays
Run conditions: source organism: Rickettsia sibirica
Parameter: Kd

Construct sequence	Data value
RTGDIGCFK	836 nM

###

Study system: HLA-B*08:01
Assay overview: IEDB peptide-MHC binding, purified MHC/competitive/radioactivity; filed as Kd, often an IC50 or EC50 that approximates it; bounds were set here for any values at or beyond the usual limits of such assays
Run conditions: source organism: Dengue virus 3 Martinique/1243/1999
# Kd annotations

Construct sequence	Kd (µM)
MLLVLCAVQL	5.97
SSMRKTDWL	0.24

###

Study system: HLA-B*27:05
Assay overview: IEDB peptide-MHC binding, purified MHC/direct/fluorescence; filed as Kd, often an IC50 or EC50 that approximates it; bounds were set here for any values at or beyond the usual limits of such assays
Run conditions: source organism: Pseudomonas putida

Construct sequence	Study system	Kd
DLSNSMRDF	HLA-B*27:05	≥ 20 µM

###

Study system: HLA-B*15:01
Assay overview: IEDB peptide-MHC binding, purified MHC/direct/fluorescence; filed as Kd, often an IC50 or EC50 that approximates it; bounds were set here for any values at or beyond the usual limits of such assays
Run conditions: source organism: West Nile virus
pKd: −log10 of the molar value.
Parameter: pKd

Construct sequence	Study system	Data value
YQTDSGCWY	HLA-B*15:01	5.87

###

Study system: HLA-A*31:01
Assay overview: IEDB peptide-MHC binding, purified MHC/direct/fluorescence; filed as Kd, often an IC50 or EC50 that approximates it; bounds were set here for any values at or beyond the usual limits of such assays
Run conditions: source organism: Campylobacter jejuni
pKd: −log10 of the molar value.

Construct sequence	pKd
SFGAGTLAK	5.41

###

Study system: HLA-B*83:01
Assay overview: IEDB peptide-MHC binding, purified MHC/competitive/fluorescence; filed as Kd, often an IC50 or EC50 that approximates it; bounds were set here for any values at or beyond the usual limits of such assays
Run conditions: source organism: Yellow fever virus

Construct sequence	Kd
AEMGANLCV	≥ 5 µM

###

Study system: HLA-B*44:02
Assay overview: IEDB peptide-MHC binding, purified MHC/direct/fluorescence; filed as Kd, often an IC50 or EC50 that approximates it; bounds were set here for any values at or beyond the usual limits of such assays
Run conditions: source organism: Reston ebolavirus - Reston
pKd: −log10 of the molar value.

Construct sequence	pKd
QLSLRMLSL	≤ 4.70

These entries and their values trace back to the Immune Epitope Database (IEDB).
